Overview of reported GI50 across a group of molecules:
Tested on: NCI/ADR-RES ovarian
Test: NCI tumour cell line growth inhibition, 48 h

## Task # lookup: GI50 of `NCCOCCOCCNc1nc(-c2ccc(Cl)cc2)nc(N2CCN(c3ccccn3)CC2)n1`
## Result 3.66 µM

## Task I have this molecule here, `CC1=C2C(=CO[C@H](C)[C@H]2C)C(=O)C(C(=O)O)=C1O` , and I need its recorded GI50.
## Result 26.9 µM

## Task I would be grateful if you could share the reported GI50 for O=C(c1ccccc1)c1c(NCC(O)CN2CCOCC2)n(Cc2ccccc2)c(=O)n(Cc2ccccc2)c1=O (centres undefined) .
## Result 2.17 µM

## Task For the molecule `OCc1ccc(-c2cscc2-c2ccc(CO)o2)o1` , what GI50 is on record?
## Result 32.9 µM

## Task GET /values?readout=GI50&item= `CC(C)(C)OC(=O)NCCCn1c2c(c3ccccc3c1=O)C(=O)c1ccccc1-2`
## Result 6.69 µM

Now turn to the next molecule.
## Task # input molecule: COc1cc2c(cc1OCCCCCCN1CCN(CC(=O)Nc3ccc(Cl)cc3C(=O)c3ccccc3Cl)CC1)N=CC1CCCN1C2=O (centres undefined) ; wanted: its GI50
## Result 0.733 µM

----------
System: M14 melanoma
Assay: NCI tumour cell line growth inhibition, 48 h
assay_endpoint: TGI

## Task Dear colleague, I am looking for the recorded TGI of the following molecule: `O=C1CC(=O)n2cnc3cccc(c32)N1`
## Result > 100 µM

Read the next record carefully.
## Task What TGI value was documented for this molecule, `c1ccc(-c2nc(N3CCOCC3)c3c4c(sc3n2)CCCCCC4)nc1` ?
## Result 16.5 µM

----------
System: MDA-N
Test: NCI tumour cell line growth inhibition, 48 h
Quick reference for TGI among some compounds

Look over these answered cases.
## Task I have this compound here, C=CCC1C(O[Si](C)(C)C(C)(C)C)C(CO[Si](C)(C)C(C)(C)C)OC1n1ccc(=O)[nH]c1=O (stereo not drawn) , and I need its recorded TGI.
## Result 2.89 µM

## Task TGI lookup needed for O=C1CCC(N2C(=O)c3ccccc3C2=O)C(=O)N1 (stereo not drawn) , thanks.
## Result > 100 µM

Next:
## Task Report TGI for COc1cc(C2c3cc4c(cc3C3OC[C@@H]2C3CO)OCO4)cc(OC)c1OC (stereo partly drawn) please.
## Result 36.1 µM

----------
Tested on: SK-MEL-5 melanoma
Test: NCI tumour cell line growth inhibition, 48 h
Recorded measurements of TGI, one per entry

## Task Given O=C(c1ccccc1)c1c(NCC(O)CN2CCOCC2)n(Cc2ccccc2)c(=O)n(Cc2ccccc2)c1=O (stereo unspecified) , state its recorded TGI.
## Result > 100 µM

## Task Give its TGI value. Item: `Cc1cc(C)c2c(c1)C(=O)/C(=C/c1ccccc1C(=O)O)C2`
## Result > 100 µM

## Task Quick one: TGI of `CN(C)CCn1c(CO)nc2c1c(=O)n(C)c(=O)n2C` ?
## Result > 100 µM

## Task I have this molecule here, `CC(=O)O[C@]1(C)OC(=O)[C@@H](CC(C)C)N1[N+](=O)[O-]` , and I need its recorded TGI.
## Result > 100 µM

## Task Dear colleague, I am looking for the recorded TGI of the following molecule: `CCOC(=O)c1cc2c([N+](=O)[O-])c(N)ccc2s1`
## Result > 100 µM

## Task Tell me the measured TGI of `C=CCC1=C(C)C[C@@H]2CCC(=O)C=C12` , please.
## Result > 100 µM

----------
Tested on: CAKI-1 renal
Test: NCI tumour cell line growth inhibition, 48 h
# GI50 values compiled below

## Task API: value(readout=GI50, system=CAKI-1 renal) for record C=C1CCC2(C#N)[C@H]3[C@H](CC[C@@H]2C)[C@@H](C)C[C@@H](CC(C)(C)NC(=O)CN2CCC2=O)[C@H]13 (some centres undefined)
## Result 10.1 µM

## Task // fetch CAKI-1 renal GI50 for `Cc1c2cc(Cl)c3ccccc3c2c[n+]2ccccc12`
## Result 21.8 µM

## Task Record lookup: for CAKI-1 renal, what GI50 belongs to `c1ccc2c(-c3nc(-c4c[nH]c5ccncc45)cs3)c[nH]c2c1` ?
## Result 1.98 µM

## Task // fetch CAKI-1 renal GI50 for `Cc1nc(Nc2cccnc2)sc1C(=O)/C=C/c1ccc(Cl)cc1`
## Result 3.15 µM

## Task Test system CAKI-1 renal; read-out GI50; what value for `O=C(NCCc1ccccn1)OCc1nc2nc(Cl)nc(N3CCOCC3)c2[nH]1` ?
## Result 1.36 µM

## Task Notebook: pull reported GI50 for CAKI-1 renal, entry `O=c1cc(N/N=C/c2ccc(F)cc2)c2cc(Cl)ccc2[nH]1`
## Result 23.5 µM

## Task Report GI50 for `COc1ccc(C(=O)NNc2nc(Cl)nc(N3CCN(C(c4ccccc4)c4ccccc4)CC3)n2)cc1` tested on CAKI-1 renal.
## Result 1.84 µM

## Task Kindly state the measured GI50 obtained for `CCN(c1cc(-c2ccc(CN3CCOCC3)cc2)cc(C(=O)NCc2c(C)cc(C)[nH]c2=O)c1C)C1CCOCC1` with CAKI-1 renal.
## Result 20.3 µM

Okay, next one:
## Task Give CAKI-1 renal GI50 for `O=C([O][Sn]([O]C(=O)c1ccccn1)([c]1ccccc1)[c]1ccccc1)c1ccccn1`
## Result 1.61 µM

----------
Test system: HS 578T breast
Experiment: NCI tumour cell line growth inhibition, 48 h
Measured TGI, listed per entry.
Numbers only; they are read as µM.

Reference set, count: 4
## Task Look at this compound and give its reported TGI. `O=C(Nc1ccc(-c2nc(-c3cccc(OCCN4CCOCC4)c3)c(-c3ccnc(Br)c3)[nH]2)cc1)c1ccccc1`
## Result 0.885

## Task For the compound COc1cc(C2c3cc4c(cc3C3OC[C@@H]2C3CO)OCO4)cc(OC)c1OC (stereo not given in full) , what TGI is on record?
## Result 95.7

## Task Quick one: TGI for `O=C(Oc1ccc(CO[N+](=O)[O-])cc1)c1ccccc1` ?
## Result 0.422

## Task What measured TGI goes with CC(C)=CCC(OC(=O)C=C(C)C)C1=CC(=O)c2c(O)ccc(O)c2C1=O (stereo not given) ?
## Result 65.2

Others:
## Task Value lookup for TGI; key = `COc1cnc2c(c1)C(=O)c1c-2n(CCCNCCO)c(=O)c2ccncc12`
## Result 10.7

----------
Test system: HOP-62 NSCLC
Assay: NCI tumour cell line growth inhibition, 48 h
assay_endpoint: TGI (µM)
State just the number; it will be interpreted in µM.

// solved cases for TGI follow
## Task Which measured TGI belongs to COc1cc2c(cc1OCCCCCCN1CCN(CC(=O)Nc3ccc(Cl)cc3C(=O)c3ccccc3Cl)CC1)N=CC1CCCN1C2=O (stereo unspecified) , tested on HOP-62 NSCLC?
## Result 0.294

## Task Lab note: need TGI with HOP-62 NSCLC for entry COc1ccc(C(O)c2cc3c(N)c(C(=O)Nc4cccc(Cl)c4)sc3nc2C)cc1 (stereo unspecified) , please look it up.
## Result 19.9

## Task Form field - read-out: TGI; system: HOP-62 NSCLC; submitted item: `COC(=O)COc1ccc(/C=C2/N=C(c3ccccc3)N(c3c(C)n(C)n(-c4ccccc4)c3=O)C2=O)cc1`
## Result 97.7

## Task Identify the measured TGI of `C=C=C(CC(CC(=C)Br)(C(=O)OC)C(=O)OC)S(=O)(=O)c1ccccc1` for HOP-62 NSCLC.
## Result 12.4

---
## Task TGI of `O=C([O][Sn]([O]C(=O)c1ccccn1)([c]1ccccc1)[c]1ccccc1)c1ccccn1` on HOP-62 NSCLC?
## Result 31.5

## Task Please state recorded TGI (tested on HOP-62 NSCLC) of `CCCCCC[C@H](C)Nc1nc2ccccc2c2occc12`
## Result 23.9

## Task Query the reported TGI for HOP-62 NSCLC; item: `Cc1cc2c([nH]c3ccccc32)c(O)c1-c1c(C)cc2c([nH]c3ccccc32)c1O`
## Result 31.5

## Task Find TGI (HOP-62 NSCLC) for the entry `OCc1ccc(-c2cscc2-c2ccc(CO)o2)o1`
## Result 37.6

## Task Recall the recorded TGI for O=C(CCN1CCN2c3ccccc3CCC2C1)c1ccc(F)cc1 (stereo unspecified) with HOP-62 NSCLC and state it.
## Result 52.8

----------
Test system: SNB-19 CNS
Experiment: NCI tumour cell line growth inhibition, 48 h
TGI: recorded values

Consider the worked cases shown below.
## Task Observed TGI on SNB-19 CNS for COc1cc(C2C3=C(COC3=O)Oc3cc4c(cc32)OCO4)cc(OC)c1O (stereo unspecified) , please.
## Result 27.6 µM

## Task Could you share what TGI was measured for O=c1ncccn1C1OC(CO)C(O)C1O (stereo unspecified) , tested on SNB-19 CNS?
## Result > 100 µM

## Task Hi! What's the reported TGI for C1CC2CN(CCCN3CCOCC3)C(C1)O2 (stereo unspecified) on SNB-19 CNS?
## Result > 100 µM

## Task Please state recorded TGI (tested on SNB-19 CNS) of COC(=O)C1C(=O)N(C)C(=O)N2CCCC12 (stereo unspecified)
## Result > 100 µM

## Task Find the measured TGI: item `C#CCn1c(=O)c(C)cn(/C(=C\C(=O)OCC)C(=O)OCC)c1=O` , target or system SNB-19 CNS.
## Result 39.4 µM

Further cases:
## Task Provide value of TGI for this record tested with SNB-19 CNS: `CN(C)CCCNc1ccc2nnn3c4ccc(O)cc4c(=O)c1c23`
## Result 23.7 µM

The reported numbers originate from PubChem BioAssay (NCI).
